The reported measurements were obtained from patent US20050058649A1.

Overview of reported Response across a group of binders:
Molecular target: T1, phospholipase A2 (PLA2) (Homo sapiens (Human), UniProt O15496 43-165)
T1 construct: PLA2 as used in Biacore, MCAB binning, peptide scan and the purified-antibody functional assay; also called PLA2 antigen
T1 sequence: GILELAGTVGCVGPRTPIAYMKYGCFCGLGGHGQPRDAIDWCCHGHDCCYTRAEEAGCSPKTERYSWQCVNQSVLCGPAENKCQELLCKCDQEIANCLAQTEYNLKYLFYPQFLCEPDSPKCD
Assay: Biacore 2000, Ab captured from supernatant, 300 nM PLA2

binder	unit.annotation	Response
anti-PLA2 mAb 1.5 (antibody, IgG2, V domains shown, also called 1.5.1) VH: EVQLVQSGAEVKKPGESLKISCKGSGYSFISYWIGWVRQMPGKGLEWMGIIYPGDSDTRYSPSFQGQVTISADKSISTAYLQWSSLKASDTAMYYCARHWSYGMDVWGQGTTVTVSS VL: EIVLTQSPGTLSLSPGERATLSCRASQSVRSGYLAWYQQRPGQAPRFLIYGASSRATGIPDRFSGSGSGTDFTLTISRLEPEDFAVYYCQQYGSSPLTFGGGTKVEIKR	RU	70
anti-PLA2 mAb 1.18 (antibody, IgG2, V domains shown) VH: EVQLVQSGAEVKKPGESLKISCKGSGYSFTNYWINWVRQMPGKGLEWMGIIYPGDSDTRYSPSFQGQVTISADKSISTAYLQWSSLKASDTAMYYCARHRLGFDYWGQGTLVTVSS VL: DIQMTQSPSSLSASVGDRVTITCRASQGIRNDLDWCQQKPGKAPKRLIYAASSLQSGVPSRFSGSGSGTEFTLTISSLQPEDFATYYCLQHNNYPPTFGQGTKVEIKR	RU	6
anti-PLA2 mAb 2.15 (antibody, IgG4, V domains shown) VH: QVQLVESGGGVVQPGRSLRLSCAASGFTFSSYGMHWVRQAPGKGLEWVAVIWYDGSNKYYADSVKGRFTISRDNSKNTLYLQMNSLRAEDTAVYYCARRDWNYAFDIWGQGTMVTVSS VL: DIQMTQSPSSLSASVGDRVTITCRASQSISNYLNWYQQKPGKAPKFLIYAASSLQSGAPSRFSGSGSGTDFTLTISSLQPEDFATYYCQQSYSTPITFGQGTRLEIKR	RU	37
